read-out: Plasminogen activator inhibitor-1 (PAI1), SERPINE1 (gene 5054); assay: BSK_hDFCGF_PAI1: BioMAP Diversity Plus: hDFCGF Assay for Plasminogen activator inhibitor-1 (PAI1) Biomarker Activity (AID 2283066); details: primary human foreskin fibroblasts; actives raise or lower the signal
Activity calls are given as the source filed them. The calls were made as follows: active = hit-call score of the fitted dose curve at least 0.9, where 1 is the maximum; inactive = score below 0.9.
Your answer must be one of the following: active, inactive

Illustrative cases are given below, each with its answer.
CC(=O)S[C@@H]1CC2=CC(=O)CC[C@]2(C)[C@H]2CC[C@@]3(C)[C@@H](CC[C@@]34CCC(=O)O4)[C@H]12 ... active
COC(=O)c1ccccc1S(=O)(=O)NC(=O)Nc1nc(OC(F)F)cc(OC(F)F)n1 ... inactive
CCOC(=O)C(C)Oc1ccc(Oc2cnc3cc(Cl)ccc3n2)cc1 (stereo unspecified) ... inactive
CC(=O)[C@H]1CC[C@H]2[C@@H]3CCC4=CC(=O)CC[C@]4(C)[C@H]3CC[C@]12C ... inactive
CCC(C)OC(=O)N1CCCCC1CCO (stereo unspecified) ... inactive

Query: For CCCCOCCOCCOCc1cc2c(cc1CCC)OCO2 , which call appears in the assay record?
Result: inactive
